// data source = ChEMBL document CHEMBL1649406

tested on: Mycobacterium tuberculosis; test: Antimycobacterial activity against Mycobacterium bovis BCG after 7 days by broth microdilution method; type: functional; settings: variant bovis BCG, 168 h
Let's look at some compounds and their measured log10(MIC).
Could you please treat all values as log10 of MIC in µg/mL?

As a guide, the following entries are already answered.
// log10(MIC) lookup, key: CCOC(=O)c1cn(C)c2c(ccc3c2nnn3Cc2ccccc2)c1=O
1.81

Try this compound next: CC[C@@H](CO)NCCN[C@@H](CC)CO [ETHAMBUTOL]
0.30

Would you kindly repeat that for CCOC(=O)c1cn(CC2CCC2)c2c(ccc3c2nnn3C)c1=O ?
1.81

Continuing:
Dear colleague, I am looking for the recorded log10(MIC) of the following compound: Cn1cc(C(=O)O)c(=O)c2ccc3c(nnn3Cc3ccccc3)c21
0.60

Further, for CCn1cc(C(=O)O)c(=O)c2ccc3c(nnn3Cc3ccccc3)c21 ?
1.20

Next entry: O=C(O)c1cn(C2CC2)c2cc(N3CCNCC3)c(F)cc2c1=O [CIPROFLOXACIN]
-0.60

Also CCOC(=O)c1cn(CC2CC2)c2c(ccc3c2nnn3C)c1=O ?
1.81

What do you have for C=C(C)Cn1cc(C(=O)O)c(=O)c2ccc3c(nnn3C)c21 ?
1.51

Next compound up: Cn1nnc2c3c(ccc21)c(=O)c(C(=O)O)cn3CC1CCC1
1.20

And what about the compound C=CCn1cc(C(=O)O)c(=O)c2ccc3c(nnn3Cc3ccccc3)c21 ?
0.90

Another: Cn1nnc2c3c(ccc21)c(=O)c(C(=O)O)cn3CC1CC1
1.20

Next compound up: CCOC(=O)c1cn(C(C)(C)C)c2c(ccc3c2nnn3C)c1=O
0.90

What do we get for C=CCn1cc(C(=O)OCC)c(=O)c2ccc3c(nnn3Cc3ccccc3)c21 ?
1.81

Next entry: Cn1cc(C(=O)O)c(=O)c2ccc3c(nnn3C)c21
0.60

Same lookup for CCCCn1cc(C(=O)OCC)c(=O)c2ccc3c(nnn3Cc3ccccc3)c21 , please.
1.81

// repeat for CCCCn1cc(C(=O)O)c(=O)c2ccc3c(nnn3Cc3ccccc3)c21 and report
1.81

# repeat for Cn1nnc2c3c(ccc21)c(=O)c(C(=O)O)cn3C(C)(C)C
1.20
